target: CDK9 CCNT1 (human) (UniProt P50750+O60563); experiment: radiometric filter-binding kinase assay, Kinase HotSpot; settings: compound 0.5 µM; ATP 10 µM
Sequence (O60563 whole entry, looked up): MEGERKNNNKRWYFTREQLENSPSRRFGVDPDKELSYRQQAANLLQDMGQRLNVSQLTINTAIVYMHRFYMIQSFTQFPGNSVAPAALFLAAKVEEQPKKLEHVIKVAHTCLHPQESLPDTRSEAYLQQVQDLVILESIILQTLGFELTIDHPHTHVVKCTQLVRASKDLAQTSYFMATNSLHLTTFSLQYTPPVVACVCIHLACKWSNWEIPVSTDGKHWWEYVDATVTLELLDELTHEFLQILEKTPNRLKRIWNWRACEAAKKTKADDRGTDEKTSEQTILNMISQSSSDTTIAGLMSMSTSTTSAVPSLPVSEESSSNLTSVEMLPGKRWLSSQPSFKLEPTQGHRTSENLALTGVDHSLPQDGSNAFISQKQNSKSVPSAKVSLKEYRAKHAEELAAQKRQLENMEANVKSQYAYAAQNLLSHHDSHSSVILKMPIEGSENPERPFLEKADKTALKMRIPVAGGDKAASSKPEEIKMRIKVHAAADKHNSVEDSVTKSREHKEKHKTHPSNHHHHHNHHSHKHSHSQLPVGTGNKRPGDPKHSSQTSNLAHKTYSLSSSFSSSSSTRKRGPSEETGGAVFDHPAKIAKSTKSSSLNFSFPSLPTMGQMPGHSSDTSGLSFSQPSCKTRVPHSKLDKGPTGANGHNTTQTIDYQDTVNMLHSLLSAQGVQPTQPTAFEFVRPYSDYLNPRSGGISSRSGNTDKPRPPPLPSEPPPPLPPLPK
Sequence (P50750 whole entry, looked up): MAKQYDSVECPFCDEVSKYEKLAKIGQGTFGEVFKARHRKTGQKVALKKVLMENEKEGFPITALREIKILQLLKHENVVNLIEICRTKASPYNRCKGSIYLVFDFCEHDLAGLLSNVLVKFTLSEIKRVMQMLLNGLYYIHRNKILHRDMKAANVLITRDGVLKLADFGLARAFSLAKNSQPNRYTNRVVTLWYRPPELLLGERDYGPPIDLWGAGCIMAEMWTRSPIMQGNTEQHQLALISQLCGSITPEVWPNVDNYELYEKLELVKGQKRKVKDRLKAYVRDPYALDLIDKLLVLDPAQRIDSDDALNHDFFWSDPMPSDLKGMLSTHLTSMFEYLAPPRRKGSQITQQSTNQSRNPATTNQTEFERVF
molecules and their reported residual activity
Just the number in %, nothing appended.

INSERT INTO assay_data (compound, result_units, result_value) VALUES
  ('c1ccc(-c2cnc(Nc3ccc(OCCN4CCCC4)cc3)s2)cc1', '%', 66.1);

Fill in: CDK9 CCNT1 (human) (UniProt P50750+O60563) residual activity for `N#Cc1c(NC(=O)c2cccc3ccccc23)sc2c1CCCC2` = 100

Fill in: CDK9 CCNT1 (human) (UniProt P50750+O60563) residual activity for `CCc1nc(-c2ccc(OC)cc2)[nH]c1-c1ccncc1` = 88.5

Fill in: CDK9 CCNT1 (human) (UniProt P50750+O60563) residual activity for `O=S(=O)(NCCNC/C=C/c1ccc(Br)cc1)c1cccc2cnccc12` = 87.8

====

biological target: WEE1 (human); experiment: radiometric filter-binding kinase assay, Kinase HotSpot; conditions: compound 0.5 µM; ATP 10 µM
Endpoint Name: residual activity
Hi, when you answer, please include the unit after the number. Thanks!

Recorded residual activity, per entry:
INSERT INTO results (compound, result_value) VALUES
  ('N#C/C(=C1/Nc2ccccc2S1)c1ccnc(NCCc2cccnc2)n1', '88.5%'),
  ('COc1cc2c(N3CCN(C(=O)Nc4ccc(OC(C)C)cc4)CC3)ncnc2cc1OCCCN1CCCCC1', '97.5%'),
  ('FC(F)(F)c1ccc(/C=C/c2nc(COc3ccc(CCCCn4ccnn4)cc3)co2)cc1', '101%');

Next item in the queue.
Briefly, residual activity measured for `COc1cc2c(cc1OC)-c1[nH]nc(Nc3cccc(F)c3)c1C2` : 93%

====

molecular target: PAK3 (human); assay: radiometric filter-binding kinase assay, Kinase HotSpot; conditions: compound 0.5 µM; ATP 10 µM
compounds and their reported residual activity
Just the number in %, nothing appended.

Recorded residual activity, per entry:
INSERT INTO measurements (compound, subject_of_test, result_units, result_value) VALUES
  ('c1ccc(-c2cnc(Nc3ccc(OCCN4CCCC4)cc3)s2)cc1', 'PAK3 (human)', '%', 99.1),
  ('Cc1cc(Nc2nc(-c3ccccc3)nc3ccccc23)n[nH]1', 'PAK3 (human)', '%', 90.2),
  ('COc1cc2c(N3CCN(C(=O)Nc4ccc(OC(C)C)cc4)CC3)ncnc2cc1OCCCN1CCCCC1', 'PAK3 (human)', '%', 105),
  ('CCCCc1c(-c2ccc(O)cc2)[nH]c2nccnc12', 'PAK3 (human)', '%', 97.7),
  ('O=C1NC(=O)c2cc(Nc3ccc(F)cc3)c(Nc3ccc(F)cc3)cc21', 'PAK3 (human)', '%', 99.4);

Briefly, residual activity measured for `N#C/C(=C1/Nc2ccccc2S1)c1ccnc(NCCc2cccnc2)n1` : 102

Briefly, residual activity measured for `CCc1nc(-c2ccc(OC)cc2)[nH]c1-c1ccncc1` : 103

====

compounds and their reported residual activity
biological target: TXK (human) (UniProt P42681); assay: radiometric filter-binding kinase assay, Kinase HotSpot; conditions: compound 0.5 µM; ATP 10 µM
Sequence (P42681 whole entry, looked up): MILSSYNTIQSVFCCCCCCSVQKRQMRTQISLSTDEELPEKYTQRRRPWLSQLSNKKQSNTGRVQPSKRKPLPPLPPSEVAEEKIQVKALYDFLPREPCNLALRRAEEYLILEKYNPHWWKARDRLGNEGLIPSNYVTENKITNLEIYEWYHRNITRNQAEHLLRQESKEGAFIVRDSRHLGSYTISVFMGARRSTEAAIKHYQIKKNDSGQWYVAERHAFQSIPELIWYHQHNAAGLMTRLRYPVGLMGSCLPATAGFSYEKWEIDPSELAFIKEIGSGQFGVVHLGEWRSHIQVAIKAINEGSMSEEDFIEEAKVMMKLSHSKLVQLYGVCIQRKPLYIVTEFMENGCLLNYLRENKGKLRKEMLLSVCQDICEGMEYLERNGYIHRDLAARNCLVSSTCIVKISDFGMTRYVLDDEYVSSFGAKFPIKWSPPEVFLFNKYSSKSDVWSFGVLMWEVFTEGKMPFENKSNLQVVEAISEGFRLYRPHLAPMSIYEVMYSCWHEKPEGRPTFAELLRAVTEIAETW
Just the number in %, nothing appended.

INSERT INTO results (compound, result_value) VALUES
  ('COc1cc2c(cc1OC)-c1[nH]nc(Nc3cccc(F)c3)c1C2', 60.6);

Briefly, residual activity measured for `O=c1c2ccccc2[nH]c(=S)n1CCN1CCC(=C(c2ccc(F)cc2)c2ccc(F)cc2)CC1` : 100

Briefly, residual activity measured for `N#CCCc1ccc2c(c1)-c1[nH]c3ccc([N+](=O)[O-])cc3c1CC(=O)N2` : 67.6

====

molecules and their reported residual activity
target: IKBKB (human); assay: radiometric filter-binding kinase assay, Kinase HotSpot; settings: compound 0.5 µM; ATP 10 µM
Hi, when you answer, please include the unit after the number. Thanks!

Fill in: IKBKB (human) residual activity for `CCc1nc(-c2ccc(OC)cc2)[nH]c1-c1ccncc1` = 106%

Fill in: IKBKB (human) residual activity for `COc1cc2c(N3CCN(C(=O)Nc4ccc(OC(C)C)cc4)CC3)ncnc2cc1OCCCN1CCCCC1` = 97.3%

Fill in: IKBKB (human) residual activity for `O=c1cc(N2CCOCC2)oc2c(-c3ccccc3)cccc12` = 100%

====

biological target: CSNK2A1 (human); test: radiometric filter-binding kinase assay, Kinase HotSpot; conditions: compound 0.5 µM; ATP 10 µM
compounds and their reported residual activity
Just the number in %, nothing appended.

Recorded residual activity, per entry:
INSERT INTO measurements (compound, result_units, result_value) VALUES
  ('c1ccc(-c2cnc(Nc3ccc(OCCN4CCCC4)cc3)s2)cc1', '%', 90.7),
  ('COc1cccc(-c2cc(=O)c3ccccc3o2)c1N', '%', 94.9),
  ('O=c1c(-c2ccc(F)cc2)c(-c2ccncc2)[nH]n1-c1ccc(Cl)cc1', '%', 95.3),
  ('O=C1NC(=O)c2c1c1c3ccccc3[nH]c1c1[nH]c3cc(Br)ccc3c21', '%', 93.1),
  ('CCc1nc(-c2ccc(OC)cc2)[nH]c1-c1ccncc1', '%', 95.3);

Briefly, residual activity measured for `N#C/C(=C1/Nc2ccccc2S1)c1ccnc(NCCc2cccnc2)n1` : 22.1

Briefly, residual activity measured for `Nc1ncnc2c1cnn2-c1ccccc1` : 94.4

Briefly, residual activity measured for `Cc1cc(Nc2nc(-c3ccccc3)nc3ccccc23)n[nH]1` : 27

Briefly, residual activity measured for `COc1cc2c(N3CCN(C(=O)Nc4ccc(OC(C)C)cc4)CC3)ncnc2cc1OCCCN1CCCCC1` : 102

Briefly, residual activity measured for `CCOc1cc2ncnc(Nc3cccc(Br)c3)c2cc1OCC` : 95.9

Briefly, residual activity measured for `N/C(=N\N=C/c1ccc(-c2cccc([N+](=O)[O-])c2)o1)N[N+](=O)[O-]` : 91

Briefly, residual activity measured for `O=S(=O)(NCCNC/C=C/c1ccc(Br)cc1)c1cccc2cnccc12` : 97.8

====

target: MAPK13 (human); assay: radiometric filter-binding kinase assay, Kinase HotSpot; details: compound 0.5 µM; ATP 10 µM
Endpoint Name: residual activity (%)
Just the number in %, nothing appended.

INSERT INTO results (compound, endpoint_name, result_value) VALUES
  ('O=c1[nH]c2ccccc2n1C1CCN(Cc2ccc(-c3nc4cc5[nH]cnc5cc4nc3-c3ccccc3)cc2)CC1', 'residual activity', 102),
  ('O=c1c2ccccc2[nH]c(=S)n1CCN1CCC(=C(c2ccc(F)cc2)c2ccc(F)cc2)CC1', 'residual activity', 106);

Next item in the queue.
Briefly, residual activity measured for `N/C(=N\N=C/c1ccc(-c2cccc([N+](=O)[O-])c2)o1)N[N+](=O)[O-]` : 101

====

target: PRKACA (human); assay: radiometric filter-binding kinase assay, Kinase HotSpot; conditions: compound 0.5 µM; ATP 10 µM
compounds and their reported residual activity
Just the number in %, nothing appended.

Recorded residual activity, per entry:
INSERT INTO assay_data (compound, subject_of_test, result_value) VALUES
  ('O=C(O)c1ccc2c3c1cccc3c(=O)n1c3ccccc3nc21', 'PRKACA (human)', 99.4),
  ('COc1cc2c(Nc3ccc(Br)cc3F)ncnc2cc1OCC1CCN(C)CC1', 'PRKACA (human)', 92.8),
  ('O=S(=O)(NCCNC/C=C/c1ccc(Br)cc1)c1cccc2cnccc12', 'PRKACA (human)', 10.5);

Briefly, residual activity measured for `N/C(=N\N=C/c1ccc(-c2cccc([N+](=O)[O-])c2)o1)N[N+](=O)[O-]` : 93.3

Briefly, residual activity measured for `O=C1NC(=O)c2c1c1c3ccccc3[nH]c1c1[nH]c3cc(Br)ccc3c21` : 103

====

biological target: MAPKAPK2 (human) (UniProt P49137); assay: radiometric filter-binding kinase assay, Kinase HotSpot; conditions: compound 0.5 µM; ATP 10 µM
Sequence (P49137 whole entry, looked up): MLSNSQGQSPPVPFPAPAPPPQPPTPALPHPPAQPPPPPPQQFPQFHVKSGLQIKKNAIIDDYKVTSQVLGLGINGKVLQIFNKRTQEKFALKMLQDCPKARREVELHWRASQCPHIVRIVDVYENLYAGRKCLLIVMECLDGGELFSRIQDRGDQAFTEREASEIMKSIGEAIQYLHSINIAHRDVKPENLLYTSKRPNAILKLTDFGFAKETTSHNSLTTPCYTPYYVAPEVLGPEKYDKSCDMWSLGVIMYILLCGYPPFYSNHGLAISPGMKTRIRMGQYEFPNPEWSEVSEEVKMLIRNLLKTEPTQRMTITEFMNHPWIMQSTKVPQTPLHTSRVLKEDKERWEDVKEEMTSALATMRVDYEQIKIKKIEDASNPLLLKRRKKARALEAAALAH
Endpoint Name: residual activity (%)
Just the number in %, nothing appended.

INSERT INTO results (compound, subject_of_test, result_units, result_value) VALUES
  ('COc1cc2ncnc(Nc3ccc(O)c(Br)c3)c2cc1OC', 'MAPKAPK2 (human) (UniProt P49137)', '%', 97.7),
  ('N#CCCc1ccc2c(c1)-c1[nH]c3ccc([N+](=O)[O-])cc3c1CC(=O)N2', 'MAPKAPK2 (human) (UniProt P49137)', '%', 83.4),
  ('O=c1c2ccccc2[nH]c(=S)n1CCN1CCC(=C(c2ccc(F)cc2)c2ccc(F)cc2)CC1', 'MAPKAPK2 (human) (UniProt P49137)', '%', 106),
  ('CCCCc1c(-c2ccc(O)cc2)[nH]c2nccnc12', 'MAPKAPK2 (human) (UniProt P49137)', '%', 92.6),
  ('COc1cc2c(Nc3ccc(Br)cc3F)ncnc2cc1OCC1CCN(C)CC1', 'MAPKAPK2 (human) (UniProt P49137)', '%', 99.5);

Next item in the queue.
Briefly, residual activity measured for `CCOc1cc2ncnc(Nc3cccc(Br)c3)c2cc1OCC` : 101
